- experimental_system: Biotinylated-IgG1 (Viva 20211108)
- protocol: HTRF ternary complex formation: compound titrated into 60 nM biotinylated IgG1 + 60 nM His-tagged hIGF-IIR (R&D 6418-GR); grade read by the legend '<50 nM = ***'
Bridge positions count the residues as written; N and C are the ends. Square brackets hold non-standard residues; d marks the D form.
Answer each item with its documented EC50.

Param item = cyclo(ELVWCT[dP]PDCAWHLG) (disulfide 5-10; not fully specified (residue 8); also: one triazole-linked A77 group on the PEG8 linker) [Compound 11] ; retrieve measured EC50.
< 50 nM

Again, but for cyclo(ELVWCT[dP]PDCAWHLG) (disulfide 5-10; not fully specified (residue 8); also: one triazole-linked A20 group on the PEG8 linker) [Compound 8]
< 50 nM

Again, but for cyclo(ELVWCT[dP]PDCAWHLG) (disulfide 5-10; not fully specified (residue 8); also: one triazole-linked A83 group on the PEG8 linker) [Compound 12]
< 50 nM

Again, but for cyclo(ELVWCT[dP]PDCAWHLG) (disulfide 5-10; not fully specified (residue 8); also: one triazole-linked (2-(6-(but-3-yn-1-yloxy)-3,4,5-trihydroxytetrahydro-2H-pyran-2-yl)ethyl)phosphonic acid group on the PEG8 linker) [Compound 6]
< 50 nM
